target: mineralocorticoid receptor (Homo sapiens); assay: Antimineralocorticoid action by transactivation test (MDCK reporter cells); type: cell-based; design: expressed in transfected cells; host or cells: MDCK cells; conditions: MDCK, read-out: Mineralocorticoid receptor Antagonism efficacy;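 further: percent inhibition of the aldosterone-stimulated reporter signal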
Sequence (P08235 whole entry): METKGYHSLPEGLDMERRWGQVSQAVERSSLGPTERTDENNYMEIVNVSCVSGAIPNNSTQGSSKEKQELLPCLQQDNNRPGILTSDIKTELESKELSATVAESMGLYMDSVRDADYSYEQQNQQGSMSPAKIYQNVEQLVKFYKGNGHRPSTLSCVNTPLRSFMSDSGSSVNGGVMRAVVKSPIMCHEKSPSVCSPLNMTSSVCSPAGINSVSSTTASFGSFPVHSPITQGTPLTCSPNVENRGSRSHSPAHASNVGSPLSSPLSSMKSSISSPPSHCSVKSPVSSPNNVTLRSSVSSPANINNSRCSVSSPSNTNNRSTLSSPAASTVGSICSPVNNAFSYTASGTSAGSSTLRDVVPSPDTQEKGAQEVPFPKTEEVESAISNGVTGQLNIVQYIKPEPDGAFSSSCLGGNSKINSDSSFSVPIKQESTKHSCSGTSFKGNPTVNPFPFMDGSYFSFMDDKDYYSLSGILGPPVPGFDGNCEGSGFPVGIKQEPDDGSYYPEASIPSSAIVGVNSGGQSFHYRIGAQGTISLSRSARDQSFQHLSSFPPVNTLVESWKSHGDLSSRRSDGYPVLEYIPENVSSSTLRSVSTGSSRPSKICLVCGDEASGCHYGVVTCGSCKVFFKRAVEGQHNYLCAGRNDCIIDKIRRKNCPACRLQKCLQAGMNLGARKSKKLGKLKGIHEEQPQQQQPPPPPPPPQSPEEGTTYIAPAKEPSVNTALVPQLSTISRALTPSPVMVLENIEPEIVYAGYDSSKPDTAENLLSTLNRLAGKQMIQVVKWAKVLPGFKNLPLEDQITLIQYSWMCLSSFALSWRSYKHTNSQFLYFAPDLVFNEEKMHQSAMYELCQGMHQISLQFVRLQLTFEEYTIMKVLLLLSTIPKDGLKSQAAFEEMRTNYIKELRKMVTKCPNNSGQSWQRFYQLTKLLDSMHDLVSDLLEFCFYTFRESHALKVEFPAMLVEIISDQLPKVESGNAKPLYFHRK
Each item that follows carries a reported Emax.

{"columns": ["Compound", "Study System", "Emax, %"],
 "data": [
  ["CC[C@]12CC[C@H]3[C@@H](CCC4=CC(=O)CC[C@@H]43)[C@@H]1[C@@H]1C[C@@H]1[C@@]21C=CC(=O)O1 [Example 9]", "mineralocorticoid receptor (Homo sapiens)", 27.8],
  ["CC[C@]12CC[C@H]3[C@@H]([C@@H]4C[C@@H]4C4=CC(=O)CC[C@@H]43)[C@@H]1[C@@H]1C[C@@H]1[C@@]21C=CC(=O)O1 [Example 2]", "mineralocorticoid receptor (Homo sapiens)", 112],
  ["CC[C@@H]1CC2=CC(=O)CC[C@@H]2[C@H]2CC[C@@]3(C)[C@@H]([C@H]4C[C@H]4[C@@]34C=CC(=O)O4)[C@H]12 [Example 15A]", "mineralocorticoid receptor (Homo sapiens)", 112]
]}
